# Target Under Test: T1, recombinant human GPRC5D-Flag-His (human, UniProt Q9NZD1)
# T1 chain: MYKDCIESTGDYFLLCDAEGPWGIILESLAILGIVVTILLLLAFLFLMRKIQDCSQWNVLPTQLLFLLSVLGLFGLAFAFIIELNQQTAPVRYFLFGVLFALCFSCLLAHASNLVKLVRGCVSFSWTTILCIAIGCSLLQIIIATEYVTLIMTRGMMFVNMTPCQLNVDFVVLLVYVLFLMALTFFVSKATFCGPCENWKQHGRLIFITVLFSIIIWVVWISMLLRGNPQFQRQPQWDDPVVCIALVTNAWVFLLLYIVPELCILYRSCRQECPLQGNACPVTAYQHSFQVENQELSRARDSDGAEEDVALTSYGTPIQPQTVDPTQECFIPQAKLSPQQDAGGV
# Protocol Description: BLI
Documented pKd across a set of binders
Quick note: pKd values are minus log10 of concentrations in mol/L.

22Mono4DN4 (antibody, V domains shown, Flag-His tag, ACRO GPD-H52D3) VH: ELVQSGAEVKKPGSSVKVSCKASGYPFTNYWMHWVRQAPGQGLEWIGEINPSNGRTNYNEKFKSRATLTLDKSTSTAYMELSSLRSEDTAVYYCARGFAYWGQGTLVTVSS VL: EIVLTQSPATLSLSPGERATLSCSASSSVSFMHWYQQKPGQAPRRWIYDTTKLASGVPARFSGSGSGTDYTLTISSLEPEDFAVYYCQQWNSHPLTFGQGTKVEIK | 7.77

Qu. Query (binder): 22Mono3L7F (antibody, V domains shown, Flag-His tag, ACRO GPD-H52D3) VH: EVTLKESGPVLVKPTETLTLTCTASGYPFTNYWMHWVRQPPGKALEWIGEINPSNGRTNYNEKFKSRATLSLDKSKSQAVLTMTNMDPVDTATYYCARGFAYWGQGTLVTVSS VL: EIVLTQSPATLSLSPGERATLSCSASSSVSFMHWYQQKPGQAPRRWIYDTTKLASGIPARFSGSGSGTDYTLTISSLEPEDFAVYYCQQWNSHPLTFGQGTKLEIK ; field requested: pKd
Ans. 7.59

Qu. Field request: pKd | item: 22Mono5JO4 (antibody, V domains shown, Flag-His tag, ACRO GPD-H52D3) VH: QVQLVQSGAEVKKPGSSVKVSCRASGYPFTNYWMHWVRQAPGQGLEWIGEINPSNGRTNYNEKFKSRATLTLDKLTSTAYMELSSLTSEDTALYYCARGFAYWGQGTLVTVSS VL: EIVLTQSPGTLSLSPGERATLSCSASSSVSFMHWYQQKPGQAPRRWIYDTTKLASGIPDRFSGSGSGTDYTLTISRLEPEDFAVYYCQQWNSHPLTFGQGTTVEIK
Ans. 9.10

Qu. // query pKd value for entry 22Mono5UQY (antibody, V domains shown, Flag-His tag, ACRO GPD-H52D3) VH: QVQLQESGPGLVKPSETLSLTCTASGYPFTNYWMHWVRQPPGKGLEWIGEINPSNGRTNYNEKFKSRATLSLDKSKNQASLNLDSVSAADTAIYYCARGFAYWGKGSTVTVSS VL: AIQLTQSPSSLSASVGDRVTITCSASSSVSFMHWYQQKPGKAPKRWIYDTTKLASGVPSRFSGSGSGTDYTFTISSLQPEDIATYYCQQWNSHPLTFGPGTKVDIK
Ans. 8.25

These measurements were taken from patent US20260285972.
